tested-system: 5-HT3A receptors (Mus musculus)
Construct: expressed in transfected cells; host or cells: Xenopus laevis oocytes injected with cRNA (pGEMHE)
Sequence (P23979 24-489): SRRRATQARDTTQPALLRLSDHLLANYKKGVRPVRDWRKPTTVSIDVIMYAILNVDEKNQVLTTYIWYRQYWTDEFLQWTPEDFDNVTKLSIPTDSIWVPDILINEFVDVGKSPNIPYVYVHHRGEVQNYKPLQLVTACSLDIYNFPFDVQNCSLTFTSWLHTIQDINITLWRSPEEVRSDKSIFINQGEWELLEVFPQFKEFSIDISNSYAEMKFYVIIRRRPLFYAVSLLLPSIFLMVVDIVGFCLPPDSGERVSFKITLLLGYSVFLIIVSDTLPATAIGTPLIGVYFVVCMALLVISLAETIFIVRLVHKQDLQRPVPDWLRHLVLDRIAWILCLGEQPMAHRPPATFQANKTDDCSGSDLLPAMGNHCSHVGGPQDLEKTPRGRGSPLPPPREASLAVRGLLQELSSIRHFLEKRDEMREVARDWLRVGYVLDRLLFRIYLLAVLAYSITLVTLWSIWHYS
protocol: Agonist-induced currents in Xenopus oocytes expressing 5-HT3A receptors (OpusXpress electrophysiology)
Assay type: cell-based
assay-setup: 5-HT3A receptors
parameter: agonist character

NCCc1c[nH]c2ccccc12 :: partial agonist
NCCc1c[nH]c2ccc(F)cc12 :: partial agonist
N=C(N)NC(=N)Nc1cccc(Cl)c1 [mCPBG, m-chlorophenylbiguanide] :: partial agonist
